Record form. Attribute: pKi. Fill in for each entry.
target: Bcl-xL (Homo sapiens); test: Time Resolved-Fluorescence Resonance Energy Transfer (TR-FRET) binding assay, competition with probe F-Bak; settings: without HS; read-out: Bcl-xL Binding Ki
pKi: −log10 of the molar value.

Ask: Recorded pKi for Cc1c(-c2ccc(N3CCc4cccc(C(=O)Nc5nc6ccccc6s5)c4C3)nc2C(=O)O)cnn1CC12CC3(C)CC(C)(C1)CC(OCCNCC(CO)CO)(C3)C2 [Example 1.79] , please?
Reply: > 11.00

Ask: Thanks! And Cc1c(-c2ccc(N3CCc4cccc(C(=O)Nc5nc6ccccc6s5)c4C3)nc2C(=O)O)cnn1CC12CC3(C)CC(C)(C1)CC(NC(=O)CNCCS(=O)(=O)O)(C3)C2 [Example 1.89] ?
Reply: > 11.00

Ask: Thanks! And Cc1c(-c2ccc(N3CCc4cccc(C(=O)Nc5nc6ccccc6s5)c4C3)nc2C(=O)O)cnn1CC12CC3(C)CC(C)(C1)CC(OCCNCCC(=O)O)(C3)C2 [Example 1.25] ?
Reply: > 12.00

Ask: Thanks! And Cc1c(-c2ccc(N3CCc4cccc(C(=O)Nc5nc6ccccc6s5)c4C3)nc2C(=O)O)cnn1CC12CC3(C)CC(C)(C1)CC(OCCNCCc1cn([C@@H]4O[C@H](C(=O)O)[C@@H](O)[C@H](O)[C@H]4O)nn1)(C3)C2 [Example 1.9] ?
Reply: > 12.00

Ask: Thanks! And Cc1c(-c2ccc(N3CCc4c(OCCNCCS(=O)(=O)O)ccc(C(=O)Nc5nc6ccccc6s5)c4C3)nc2C(=O)O)cnn1CC12CC3(C)CC(C)(C1)CC(OCCN(C)CCS(=O)(=O)O)(C3)C2 [Example 1.47] ?
Reply: 11.22

Ask: Thanks! And Cc1c(-c2ccc(-c3ccc4cccc(C(=O)Nc5nc6ccccc6s5)c4c3)nc2C(=O)O)cnn1CC12CC3(C)CC(C)(C1)CC(OCCNCCCS(=O)(=O)O)(C3)C2 [Example 1.35] ?
Reply: > 12.00

Ask: Thanks! And CNCCOC12CC3(C)CC(C)(CC(Cn4ncc(-c5ccc(N6CCc7c(OCC(=O)O)ccc(C(=O)Nc8nc9ccccc9s8)c7C6)nc5C(=O)O)c4C)(C3)C1)C2 [Example 1.41] ?
Reply: 11.10

Ask: Thanks! And Cc1c(-c2ccc(N3CCc4cccc(C(=O)Nc5nc6ccccc6s5)c4C3)nc2C(=O)O)cnn1CC12CC3(C)CC(C)(C1)CC(OCCN(CCOCCOCCN)Cc1ccc(CC4O[C@H](C(=O)O)[C@@H](O)[C@H](O)[C@H]4O)cc1)(C3)C2 (stereo partly shown) [Example 1.18] ?
Reply: > 12.00

Ask: Thanks! And Cc1c(-c2ccc(N3CCc4cccc(C(=O)Nc5nc6ccccc6s5)c4C3)nc2C(=O)O)cnn1CC12CC3(C)CC(C)(C1)CC(OCCN(CCS(=O)(=O)O)C(=O)[C@@H](N)CC(=O)O)(C3)C2 [Example 1.44] ?
Reply: > 12.00

Ask: Thanks! And Cc1c(-c2ccc(N3CCc4cccc(C(=O)Nc5nc6ccccc6s5)c4C3)nc2C(=O)O)cnn1CC12CC3(C)CC(C)(C1)CC(OCCNCC[C@H](O)[C@H](O)CO)(C3)C2 [Example 1.80] ?
Reply: 10.28

---

biological target: Bcl-xL (Homo sapiens, UniProt Q07817); assay: Time Resolved-Fluorescence Resonance Energy Transfer (TR-FRET) binding assay, competition with probe F-Bak; conditions: without HS; read-out: Bcl-xL Binding Ki
Sequence (Q07817 whole entry): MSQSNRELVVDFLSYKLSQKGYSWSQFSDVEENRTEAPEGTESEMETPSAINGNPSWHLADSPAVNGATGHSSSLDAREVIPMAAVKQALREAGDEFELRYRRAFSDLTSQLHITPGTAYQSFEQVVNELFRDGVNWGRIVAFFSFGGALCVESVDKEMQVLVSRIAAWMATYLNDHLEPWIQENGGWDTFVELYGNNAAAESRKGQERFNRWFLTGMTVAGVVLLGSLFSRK
Record form. Attribute: pKi. Fill in for each entry.
By convention, pKi is the negative base-10 log of a molar concentration.

Ask: Recorded pKi for Cc1c(-c2ccc(N3CCc4cccc(C(=O)Nc5nc6ccccc6s5)c4C3)nc2C(=O)O)cnn1CC12CC3(C)CC(C)(C1)CC(OCCNCc1ccc(S(=O)(=O)N[C@@H]4[C@@H](O)[C@H](O)[C@@H](CO)O[C@H]4O)cc1)(C3)C2 [Example 1.8] , please?
Reply: 11.72

Ask: Thanks! And Cc1c(-c2ccc(N3CCc4cccc(C(=O)Nc5nc6ccccc6s5)c4C3)nc2C(=O)O)cnn1CC12CC3(C)CC(C)(C1)CC(OCCN(C)C(=O)[C@@H](N)CC(=O)O)(C3)C2 [Example 1.17] ?
Reply: 10.66

Ask: Thanks! And Cc1c(-c2ccc(N3CCc4cccc(C(=O)Nc5nc6ncccc6s5)c4C3)nc2C(=O)O)cnn1CC12CC3(C)CC(C)(C1)CC(OCCNCCS(=O)(=O)O)(C3)C2 [Example 1.23] ?
Reply: 11.22

---

molecular target: Bcl-xL (Homo sapiens, UniProt Q07817); assay: Time Resolved-Fluorescence Resonance Energy Transfer (TR-FRET) binding assay, competition with probe F-Bak; conditions: without HS; read-out: Bcl-xL Binding Ki
Record form. Attribute: Ki. Fill in for each entry.

Ask: Recorded Ki for "Cc1c(-c2ccc(N3CCc4cccc(C(=O)Nc5nc6ccccc6s5)c4C3)nc2C(=O)O)cnn1CC12CC3(C)CC(C)(C1)CC(OCCN(CCNCCC(=O)O)CCS(=O)(=O)O)(C3)C2" , please?
Reply: < 1 pM

Ask: Thanks! And "Cc1c(-c2ccc(N3CCc4cccc(C(=O)Nc5nc6ccccc6s5)c4C3)nc2C(=O)O)cnn1CC12CC3(C)CC(C)(C1)CC(OCCNCCCP(=O)(O)O)(C3)C2" ?
Reply: < 1 pM

Ask: Thanks! And "Cc1c(-c2ccc(-c3ccc4c(c3)N(C(=O)Nc3nc5ccccc5s3)CCC4)nc2C(=O)O)cnn1CC12CC3(C)CC(C)(C1)CC(OCCN(C)C1CNC1)(C3)C2" ?
Reply: < 10 pM

Ask: Thanks! And "Cc1c(-c2ccc(N3CCc4cccc(C(=O)Nc5nc6ccccc6s5)c4C3)nc2C(=O)O)cnn1CC12CC3(C)CC(C)(C1)CC(OCCNC1CCN(CC(=O)O)CC1)(C3)C2" ?
Reply: < 1 pM

Ask: Thanks! And "Cc1c(-c2ccc(N3CCc4cccc(C(=O)Nc5nc6ccccc6s5)c4C3)nc2C(=O)O)cnn1CC12CC3(C)CC(C)(C1)CC(OCCNC(CO)CO)(C3)C2" ?
Reply: < 1 pM

---

target: Bcl-xL (Homo sapiens); assay: Time Resolved-Fluorescence Resonance Energy Transfer (TR-FRET) binding assay, competition with probe F-Bak; conditions: in the presence of 1% HS; read-out: Bcl-xL Binding Ki (nM, 1% HS)
Returns: string. Value is yes if measured Ki is below 0.2 nM, and no if it is greater than or equal to it.

Ask: Identify whether the molecule Cc1c(-c2ccc(-c3cnc4cccc(C(=O)Nc5nc6ccccc6s5)c4c3)nc2C(=O)O)cnn1CC12CC3(C)CC(C)(C1)CC(OCCNCCC(=O)O)(C3)C2 [Example 1.71] records Ki below 0.2 nM.
Reply: yes

Ask: Thanks! And Cc1c(-c2ccc(N3CCc4cccc(C(=O)Nc5nc6ccccc6s5)c4C3)nc2C(=O)O)cnn1CC12CC3(C)CC(C)(C1)CC(OCCNCCC(=O)NC(CO)(CO)CO)(C3)C2 [Example 1.84] ?
Reply: no

Ask: Thanks! And Cc1c(-c2ccc(N3CCc4cccc(C(=O)Nc5nc6ccccc6s5)c4C3)nc2C(=O)O)cnn1CC12CC3(C)CC(C)(C1)CC(OCCNCCCS(=O)(=O)O)(C3)C2 [Example 1.5] ?
Reply: no

Ask: Thanks! And Cc1c(-c2ccc(N3CCc4cccc(C(=O)Nc5nc6ccccc6s5)c4C3)nc2C(=O)O)cnn1CC12CC3(C)CC(C)(C1)CC(OCCN(C)C(=O)[C@@H](N)CC(=O)O)(C3)C2 [Example 1.17] ?
Reply: no

Ask: Thanks! And Cc1c(-c2ccc(N3CCc4cccc(C(=O)Nc5nc6ccccc6s5)c4C3)nc2C(=O)O)cnn1CC12CC3(C)CC(C)(C1)CC(OCCN(CCC(=O)O)C1CCNCC1)(C3)C2 [Example 1.36] ?
Reply: yes

Ask: Thanks! And Cc1c(-c2ccc(N3CCc4cccc(C(=O)Nc5nc6ccccc6s5)c4C3)nc2C(=O)O)cnn1CC12CC3(C)CC(C)(C1)CC(OCCNCC(O)CO)(C3)C2 (stereo not drawn) [Example 1.7] ?
Reply: no

Ask: Thanks! And CNCCCc1cc2c(c(C(=O)Nc3nc4ccccc4s3)c1)CN(c1ccc(-c3cnn(CC45CC6(C)CC(C)(C4)CC(OCCNCCS(=O)(=O)O)(C6)C5)c3C)c(C(=O)O)n1)CC2 [Example 1.75] ?
Reply: no

Ask: Thanks! And Cc1c(-c2ccc(-c3ccc4c(c3)N(C(=O)Nc3nc5ccccc5s3)CCC4)nc2C(=O)O)cnn1CC12CC3(C)CC(C)(C1)CC(OCCN(C)C(=O)[C@@H](N)CS(=O)(=O)O)(C3)C2 [Example 1.21] ?
Reply: no

Ask: Thanks! And Cc1c(-c2ccc(N3CCc4cccc(C(=O)Nc5nc6ccccc6s5)c4C3)nc2C(=O)O)cnn1CC12CC3(C)CC(C)(C1)CC(OCCOCCNCCS(=O)(=O)O)(C3)C2 [Example 1.11] ?
Reply: yes

Ask: Thanks! And Cc1c(-c2ccc(N3CCc4c(OCCN)ccc(C(=O)Nc5nc6ccccc6s5)c4C3)nc2C(=O)O)cnn1CC12CC3(C)CC(C)(C1)CC(OCCN(C)CCS(=O)(=O)O)(C3)C2 [Example 1.46] ?
Reply: yes

Ask: Thanks! And Cc1c(-c2ccc(N3CCc4cccc(C(=O)Nc5nc6ccccc6s5)c4C3)nc2C(=O)O)cnn1CC12CC3(C)CC(C)(C1)CC(OCCNCC[C@H](O)[C@H](O)CO)(C3)C2 [Example 1.80] ?
Reply: no

Ask: Thanks! And Cc1c(-c2ccc(N3CCc4c(OCCNCCS(=O)(=O)O)ccc(C(=O)Nc5nc6ccccc6s5)c4C3)nc2C(=O)O)cnn1CC12CC3(C)CC(C)(C1)CC(OCCN(C)CCS(=O)(=O)O)(C3)C2 [Example 1.47] ?
Reply: yes

Ask: Thanks! And Cc1c(-c2ccc(N3CCc4cccc(C(=O)Nc5nc6ccccc6s5)c4C3)nc2C(=O)O)cnn1CC12CC3(C)CC(C)(C1)CC(OCCNCC[C@H](O)CO)(C3)C2 [Example 1.85] ?
Reply: no

Ask: Thanks! And Cc1c(-c2ccc(N3CCc4cccc(C(=O)Nc5nc6ccccc6s5)c4C3)nc2C(=O)O)cnn1CC12CC3(C)CC(C)(C1)CC(OCCNC[C@H](O)[C@H](O)[C@@H](O)[C@H](O)[C@H](O)CO)(C3)C2 [Example 1.82] ?
Reply: no

Ask: Thanks! And Cc1c(-c2ccc(N3CCc4cccc(C(=O)Nc5nc6ccccc6s5)c4C3)nc2C(=O)O)cnn1CC12CC3(C)CC(C)(C1)CC(OCCN(C)C(=O)[C@@H](N)CCCC[N+](C)(C)C)(C3)C2 [Example 1.29] ?
Reply: yes

Ask: Thanks! And Cc1c(-c2ccc(N3CCc4cccc(C(=O)Nc5nc6ccccc6s5)c4C3)nc2C(=O)O)cnn1CC12CC3(C)CC(C)(C1)CC(OCCNC[C@H](O)[C@@H](O)CO)(C3)C2 [Example 1.81] ?
Reply: no

Ask: Thanks! And CNCCOC12CC3(C)CC(C)(CC(Cn4ncc(-c5ccc(-c6ccc7c[n+]([O-])cc(C(=O)Nc8nc9ccccc9s8)c7c6)nc5C(=O)O)c4C)(C3)C1)C2 [Example 1.88] ?
Reply: no

Ask: Thanks! And Cc1c(-c2ccc(N3CCc4cccc(C(=O)Nc5nc6ncccc6s5)c4C3)nc2C(=O)O)cnn1CC12CC3(C)CC(C)(C1)CC(OCCNCCCP(=O)(O)O)(C3)C2 [Example 1.39] ?
Reply: yes

Ask: Thanks! And Cc1c(-c2ccc(N3CCc4cccc(C(=O)Nc5nc6ccccc6s5)c4C3)nc2C(=O)O)cnn1CC12CC3(C)CC(C)(C1)CC(OCCNS(=O)(=O)CCCNC(CO)CO)(C3)C2 [Example 1.83] ?
Reply: no

Ask: Thanks! And Cc1c(-c2ccc(N3CCc4cccc(C(=O)Nc5nc6ccccc6s5)c4C3)nc2C(=O)O)cnn1CC12CC3(C)CC(C)(C1)CC(OCCN(C)C(=O)[C@@H](N)CCCCN(C)C)(C3)C2 [Example 1.63] ?
Reply: yes

Ask: Thanks! And Cc1c(-c2ccc(N3CCc4cccc(C(=O)Nc5nc6ccccc6s5)c4C3)nc2C(=O)O)cnn1CC12CC3(C)CC(C)(C1)CC(OCCNCCOCCOCC(=O)O)(C3)C2 [Example 1.1] ?
Reply: yes
